Tested on: Mycobacterium tuberculosis
protocol summary: Antimycobacterial activity against Mycobacterium tuberculosis H37Rv ATCC27294 assessed as inhibition of bacterial growth by agar dilution assay
Assay type: functional
Provide the reported MIC of each item.

Some solved entries appear below for comparison.
INSERT INTO results (structure_smiles, target_or_test_system, measurement_name, obs_value) VALUES
  ('COc1ccc(-c2cc(-c3nnc(C)o3)nn2-c2ccc(NC(=O)c3ccc(F)cc3)cc2)cc1', 'Mycobacterium tuberculosis', 'MIC', '> 50 µg/mL'),
  ('COc1ccc(-c2cc(-c3nnc(C)o3)nn2-c2ccc(NC(=O)c3ccccc3)cc2)cc1', 'Mycobacterium tuberculosis', 'MIC', '> 50 µg/mL'),
  ('Cc1nnc(-c2cc(-c3ccc(Cl)cc3)n(-c3ccc(NC(=O)c4ccccc4)cc3)n2)o1', 'Mycobacterium tuberculosis', 'MIC', '3.13 µg/mL');

Request: # return MIC for `Cc1nnc(-c2cc(-c3ccc(Cl)cc3)n(-c3ccc(NC(=O)c4ccccc4Cl)cc3)n2)o1` , test system: Mycobacterium tuberculosis
Response: 1.56 µg/mL

Just for reference, ChEMBL document CHEMBL5260831 is where these values come from.
